The origin of these recorded values is patent US11141452B2.

The compounds listed here are annotated with their Log[IC50±] (μ).
measurement_target: MOR
run_description: Radioligand binding assay at μ opioid receptor
protocol_conditions: log IC50 ± error
Non-standard residues stand in square brackets, D forms with d. Residues, ends and D or L forms follow the SMILES beside them. *: point of attachment. NH(3,5-(CF3)2-benzyl) = FC(F)(F)c1cc(CN*)cc(C(F)(F)F)c1; Dmt = Cc1cc(O)cc(C)c1C[C@H](N)C(=O)O
Answer field: number only, no words.

- compound: "Cc1cc(O)cc(C)c1C[C@H](N)C(=O)N[C@H](C)C(=O)N[C@@H](Cc1ccccc1)C(=O)NCC(=O)N[C@@H](Cc1ccc(O)cc1)C(=O)N1CCC[C@H]1C(=O)N[C@@H](CC(C)C)C(=O)N[C@@H](Cc1c[nH]c2ccccc12)C(=O)NCc1cc(C(F)(F)F)cc(C(F)(F)F)c1 [AKG118] (H-[Dmt][dA]FGYPLW-{NH(3,5-(CF3)2-benzyl)})"
  Log[IC50±] (μ): "−8.65"

Now for another entry.
Hi! What's the reported Log[IC50±] (μ) for CC(C)C[C@H](NC(=O)[C@@H]1CCCN1C(=O)[C@@H](CCC(N)=O)NC(=O)[C@H](Cc1ccccc1)NC(=O)CNC(=O)[C@@H](C)NC(=O)[C@@H](N)Cc1ccc(O)cc1)C(=O)N[C@@H](Cc1c[nH]c2ccccc12)C(=O)NCc1cc(C(F)(F)F)cc(C(F)(F)F)c1 [AKG103] on MOR?
−6.57
